- measurement-target: Ybr033w (UniProt P38073)
- Sequence: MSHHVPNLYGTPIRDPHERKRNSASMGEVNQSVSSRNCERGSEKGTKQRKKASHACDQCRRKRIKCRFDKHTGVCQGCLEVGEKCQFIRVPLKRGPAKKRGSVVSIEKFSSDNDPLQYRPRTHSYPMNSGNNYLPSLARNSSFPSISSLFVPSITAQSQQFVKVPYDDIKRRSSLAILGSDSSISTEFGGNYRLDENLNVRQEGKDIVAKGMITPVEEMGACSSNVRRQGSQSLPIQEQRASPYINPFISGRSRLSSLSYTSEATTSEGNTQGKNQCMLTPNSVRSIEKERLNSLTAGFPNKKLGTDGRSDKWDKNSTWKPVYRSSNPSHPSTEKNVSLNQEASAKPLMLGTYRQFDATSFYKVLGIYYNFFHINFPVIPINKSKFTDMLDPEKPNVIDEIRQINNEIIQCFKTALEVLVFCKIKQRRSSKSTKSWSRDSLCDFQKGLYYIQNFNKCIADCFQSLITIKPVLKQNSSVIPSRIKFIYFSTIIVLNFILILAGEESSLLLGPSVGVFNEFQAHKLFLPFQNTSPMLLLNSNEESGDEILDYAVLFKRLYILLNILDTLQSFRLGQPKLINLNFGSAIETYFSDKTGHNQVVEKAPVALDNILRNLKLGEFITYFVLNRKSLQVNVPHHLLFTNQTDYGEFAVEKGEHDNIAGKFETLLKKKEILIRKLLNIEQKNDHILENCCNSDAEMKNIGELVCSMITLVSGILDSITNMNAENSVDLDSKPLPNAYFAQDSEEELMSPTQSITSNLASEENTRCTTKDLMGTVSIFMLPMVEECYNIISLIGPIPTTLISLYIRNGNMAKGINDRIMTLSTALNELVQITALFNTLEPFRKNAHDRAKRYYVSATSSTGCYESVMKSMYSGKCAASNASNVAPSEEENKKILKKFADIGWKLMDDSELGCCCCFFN
- protocol: PBM E-score (8-mer binding enrichment) (E-score (-0.5 to 0.5)); higher = stronger / more preferred TF binding
- condition-label: protein concentration: 200 nM; construct: GST-full length
Whole data set: some 33,000 sequences, median “E-score (-0.5 to 0.5)” near -0.012, cut for the highest 2% near 0.29. What follows is part of a selection rich in the highest values, with near analogues and random picks from the rest.
measurement-name: PBM E-score
Lab note: record just the number, no unit beside it.

{"columns": ["biosequence", "PBM E-score"],
 "data": [
  ["AATGTAAT", 0.272]
]}

Looking up "AATCAAGC" , I see its PBM E-score listed as 0.0885

Looking up "AGGTTGAG" , I see its PBM E-score listed as -0.167
